For each entry below, report its IC50 value.
- test system: UniProt O60502
- Sequence (O60502 1-916): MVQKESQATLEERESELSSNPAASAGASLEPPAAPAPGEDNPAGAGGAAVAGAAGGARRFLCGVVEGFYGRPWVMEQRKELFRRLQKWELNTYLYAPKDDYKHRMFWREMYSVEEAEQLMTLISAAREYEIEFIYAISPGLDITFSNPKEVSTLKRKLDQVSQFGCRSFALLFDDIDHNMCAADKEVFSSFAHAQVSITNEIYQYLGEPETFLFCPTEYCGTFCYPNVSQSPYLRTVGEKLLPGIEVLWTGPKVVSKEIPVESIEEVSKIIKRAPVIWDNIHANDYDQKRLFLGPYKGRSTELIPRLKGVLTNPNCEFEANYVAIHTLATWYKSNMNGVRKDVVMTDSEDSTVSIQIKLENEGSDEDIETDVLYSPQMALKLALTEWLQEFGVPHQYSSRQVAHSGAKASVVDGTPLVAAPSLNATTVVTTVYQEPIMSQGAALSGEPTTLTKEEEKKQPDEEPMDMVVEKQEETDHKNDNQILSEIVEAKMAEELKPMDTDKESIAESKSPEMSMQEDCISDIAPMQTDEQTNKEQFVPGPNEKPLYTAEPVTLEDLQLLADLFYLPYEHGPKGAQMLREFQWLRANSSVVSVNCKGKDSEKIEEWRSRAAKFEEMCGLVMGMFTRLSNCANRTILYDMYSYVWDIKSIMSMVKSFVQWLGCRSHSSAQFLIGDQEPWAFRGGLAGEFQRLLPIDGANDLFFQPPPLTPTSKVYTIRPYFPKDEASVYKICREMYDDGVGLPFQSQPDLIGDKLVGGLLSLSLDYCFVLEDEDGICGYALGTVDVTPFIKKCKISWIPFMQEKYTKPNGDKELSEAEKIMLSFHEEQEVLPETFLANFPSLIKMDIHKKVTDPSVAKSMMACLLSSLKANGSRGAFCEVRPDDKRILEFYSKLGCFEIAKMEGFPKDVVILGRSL
- procedure summary: Human O-GlcNAcase enzyme inhibition assay
- Assay type: biochemical
- measurement conditions: 20 nM His-Tagged hOGA, 10 μM FL-GlcNAc, pH 6.5, 60 min; read-out: hOGA enzyme inhibition (IC50)

molecule smiles | IC50
CC(=O)Nc1ncc(CN2CCC(Cc3cc(F)cc(F)c3)CC2)s1 | < 200 nM
CC(=O)Nc1ncc(CN2CCC(C3CCCCC3)CC2)s1 | < 200 nM
CC(=O)Nc1ncc(CN2CCC(N(C)C)CC2)s1 | > 10000 nM
CC(=O)Nc1ncc(CN2CCC(c3ccccc3C(=O)O)CC2)s1 | > 10000 nM

Could you now look at the following compound, please?
API: value(readout=IC50, system=UniProt O60502) for record `CC(=O)Nc1ncc(CN(C)CCCc2ccccc2)s1` < 200 nM
